test: photoluminescence quantum yield (fraction); solvent given as SMILES; details: in CCO
Provide the recorded photoluminescence quantum yield for the entries that follow.
Give bare numbers.

Item CN(C)c1ccc2nc(/C=C/c3ccccc3)c(=O)oc2c1 : provide photoluminescence quantum yield 0.55

Item CCCCCCCCCCCCN1C(=O)c2cccc3c(N(Cc4ccccn4)Cc4ccccn4)c4ccccc4c(c23)C1=O : provide photoluminescence quantum yield 0.1

Item CN(C)c1ccc2c(C(=O)NCc3ccccc3)cc(C(=O)[O-])nc2c1 : provide photoluminescence quantum yield 0.013

Item c1ccc2c(c1)[nH]c1cccnc12 : provide photoluminescence quantum yield 0.129

Kindly consider the entry below.
Item CCOC(=O)c1ccccc1-c1c2ccc(=[N+](CC)CC)cc-2oc2cc(N(CC)CC)ccc12 : provide photoluminescence quantum yield 0.69
